Target: T1, Msn5 (S. cerevisiae exportin), wild type (S. cerevisiae, UniProt P52918 1-1224)
T1 sequence: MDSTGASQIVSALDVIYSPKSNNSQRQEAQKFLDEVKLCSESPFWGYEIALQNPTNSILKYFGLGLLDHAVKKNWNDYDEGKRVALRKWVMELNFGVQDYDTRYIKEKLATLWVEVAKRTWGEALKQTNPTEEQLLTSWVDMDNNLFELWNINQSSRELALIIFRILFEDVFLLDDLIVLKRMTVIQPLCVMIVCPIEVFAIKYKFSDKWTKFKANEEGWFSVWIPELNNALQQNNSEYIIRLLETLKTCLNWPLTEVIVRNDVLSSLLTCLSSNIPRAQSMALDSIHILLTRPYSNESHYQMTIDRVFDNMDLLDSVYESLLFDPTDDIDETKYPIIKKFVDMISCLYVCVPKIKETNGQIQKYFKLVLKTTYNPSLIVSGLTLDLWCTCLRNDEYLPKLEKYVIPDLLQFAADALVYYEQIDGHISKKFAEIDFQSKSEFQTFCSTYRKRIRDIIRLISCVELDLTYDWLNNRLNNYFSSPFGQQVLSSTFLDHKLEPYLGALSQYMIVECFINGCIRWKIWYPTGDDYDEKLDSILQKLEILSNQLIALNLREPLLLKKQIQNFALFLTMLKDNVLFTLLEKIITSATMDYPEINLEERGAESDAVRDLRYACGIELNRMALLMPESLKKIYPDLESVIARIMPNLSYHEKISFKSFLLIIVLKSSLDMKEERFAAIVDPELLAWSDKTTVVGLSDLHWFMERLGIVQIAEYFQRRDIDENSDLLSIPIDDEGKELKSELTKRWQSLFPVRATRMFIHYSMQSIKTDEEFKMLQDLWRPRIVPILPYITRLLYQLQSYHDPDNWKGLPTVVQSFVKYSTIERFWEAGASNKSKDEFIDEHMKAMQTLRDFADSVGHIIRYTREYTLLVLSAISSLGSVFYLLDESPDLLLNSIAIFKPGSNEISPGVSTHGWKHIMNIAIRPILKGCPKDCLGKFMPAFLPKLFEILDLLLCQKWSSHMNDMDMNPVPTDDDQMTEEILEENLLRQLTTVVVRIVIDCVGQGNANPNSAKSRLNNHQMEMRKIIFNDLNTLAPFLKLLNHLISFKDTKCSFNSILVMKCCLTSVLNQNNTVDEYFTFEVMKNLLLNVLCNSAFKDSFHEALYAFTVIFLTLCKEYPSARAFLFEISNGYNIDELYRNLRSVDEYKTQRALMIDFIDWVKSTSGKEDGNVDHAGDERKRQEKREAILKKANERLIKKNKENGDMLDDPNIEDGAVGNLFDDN
Assay: fluorescence polarisation
pKd: −log10 of the molar value.
parameter: pKd

INSERT INTO results (binder, readout_value) VALUES
  ('mNeonGreen-pPho4_(3-200) R2mut (domain or fragment, phosphorylated in vitro by Pho80-Pho85: pS100, pS114, pS128, pS152) RTTSEGIHGFVDDLEPKSSILDKVGDFITVNTKRHDGREDFNEQNDELNSQENHNSSENGNENENEQDSLALDDLDRAFELVEGMDMDWMMPSHAHHSPATTATIKPRLLGSPGGSGQSAVPVTISPNLVATATSTTSANKVTKNKSNSSPYLNKRRGKPGPDSATSLFELPDSVIPTPKPKPKPKQYPKVILPSNST', 6.10),
  ('mNeonGreen-pPho4_(3-200) S100/152AA (domain or fragment, phosphorylated in vitro by Pho80-Pho85: pS114, pS128) RTTSEGIHGFVDDLEPKSSILDKVGDFITVNTKRHDGREDFNEQNDELNSQENHNSSENGNENENEQDSLALDDLDRAFELVEGMDMDWMMPSHAHHAPATTATIKPRLLYSPLIHTQSAVPVTISPNLVATATSTTSANKVTKNKSNSAPYLNKRRGKPGPDSATSLFELPDSVIPTPKPKPKPKQYPKVILPSNST', 7.34),
  ('mNeonGreen-pPho4_(3-200) S114A (domain or fragment, phosphorylated in vitro by Pho80-Pho85: pS100, pS128, pS152) RTTSEGIHGFVDDLEPKSSILDKVGDFITVNTKRHDGREDFNEQNDELNSQENHNSSENGNENENEQDSLALDDLDRAFELVEGMDMDWMMPSHAHHSPATTATIKPRLLYAPLIHTQSAVPVTISPNLVATATSTTSANKVTKNKSNSSPYLNKRRGKPGPDSATSLFELPDSVIPTPKPKPKPKQYPKVILPSNST', 6.60),
  ('mNeonGreen-pPho4_(3-200) 102–107GKK (domain or fragment, phosphorylated in vitro by Pho80-Pho85: pS100, pS114, pS128, pS152) RTTSEGIHGFVDDLEPKSSILDKVGDFITVNTKRHDGREDFNEQNDELNSQENHNSSENGNENENEQDSLALDDLDRAFELVEGMDMDWMMPSHAHHSPGKKGKKKPRLLYSPLIHTQSAVPVTISPNLVATATSTTSANKVTKNKSNSSPYLNKRRGKPGPDSATSLFELPDSVIPTPKPKPKPKQYPKVILPSNST', 6.96),
  ('mNeonGreen-pPho4_(3-200) R4mut (L131A/T134A) (domain or fragment, phosphorylated in vitro by Pho80-Pho85: pS100, pS114, pS128, pS152) RTTSEGIHGFVDDLEPKSSILDKVGDFITVNTKRHDGREDFNEQNDELNSQENHNSSENGNENENEQDSLALDDLDRAFELVEGMDMDWMMPSHAHHSPATTATIKPRLLYSPLIHTQSAVPVTISPNAVAAATSTTSANKVTKNKSNSSPYLNKRRGKPGPDSATSLFELPDSVIPTPKPKPKPKQYPKVILPSNST', 6.82),
  ('mNeonGreen-pPho4_(3-200) S128A (domain or fragment, phosphorylated in vitro by Pho80-Pho85: pS100, pS114, pS152) RTTSEGIHGFVDDLEPKSSILDKVGDFITVNTKRHDGREDFNEQNDELNSQENHNSSENGNENENEQDSLALDDLDRAFELVEGMDMDWMMPSHAHHSPATTATIKPRLLYSPLIHTQSAVPVTIAPNLVATATSTTSANKVTKNKSNSSPYLNKRRGKPGPDSATSLFELPDSVIPTPKPKPKPKQYPKVILPSNST', 6.92),
  ('mNeonGreen-pPho4_(3-200) R3mut (domain or fragment, phosphorylated in vitro by Pho80-Pho85: pS100, pS114, pS128, pS152) RTTSEGIHGFVDDLEPKSSILDKVGDFITVNTKRHDGREDFNEQNDELNSQENHNSSENGNENENEQDSLALDDLDRAFELVEGMDMDWMMPSHAHHSPATTATIKPRLLYSPLIHTQSGGSGGSSPNLVATATSTTSANKVTKNKSNSSPYLNKRRGKPGPDSATSLFELPDSVIPTPKPKPKPKQYPKVILPSNST', 6.55),
  ('mNeonGreen-pPho4_(3-200) S114/128AA (domain or fragment, phosphorylated in vitro by Pho80-Pho85: pS100, pS152) RTTSEGIHGFVDDLEPKSSILDKVGDFITVNTKRHDGREDFNEQNDELNSQENHNSSENGNENENEQDSLALDDLDRAFELVEGMDMDWMMPSHAHHSPATTATIKPRLLYAPLIHTQSAVPVTIAPNLVATATSTTSANKVTKNKSNSSPYLNKRRGKPGPDSATSLFELPDSVIPTPKPKPKPKQYPKVILPSNST', 6.00),
  ('mNeonGreen-Pho4_(3-200), unphosphorylated (domain or fragment) RTTSEGIHGFVDDLEPKSSILDKVGDFITVNTKRHDGREDFNEQNDELNSQENHNSSENGNENENEQDSLALDDLDRAFELVEGMDMDWMMPSHAHHSPATTATIKPRLLYSPLIHTQSAVPVTISPNLVATATSTTSANKVTKNKSNSSPYLNKRRGKPGPDSATSLFELPDSVIPTPKPKPKPKQYPKVILPSNST', 5.62);

Data origin: paper PMC11910620
